Reference source for all entries: a melting point compilation (Tetko et al.; mined from patent text by program, amines drawn as free bases though some values may be those of a salt)

Reported melting point values are given for each entry in this list.

compound: CC(=O)CCCCCC(=O)N[C@@H](C)C(=O)N[C@H](CCC(=O)OCc1ccccc1)C(N)=O
melting point: 162 °C
--
compound: COc1ccc(Cc2ccc3[nH]c(=S)[nH]c3c2)c(O)c1
melting point: 248 to 250 °C
--
compound: C/C(=N\O)c1cccc(Nc2c3ccccc3nc3occc23)c1
melting point: 248 to 249 °C
--
compound: N#Cc1cccc(-c2ccc3c(Cl)cnc(NC(=N)N)c3c2)c1
melting point: > 300 °C
--
compound: COc1ccc(COc2ccc(C(=O)O)cc2OCc2ccc(OC)cc2)cc1
melting point: 171 to 172 °C
--
compound: CCCCc1nc2sc3c(NCc4ccco4)ncnc3c2c2c1COC(C)(C)C2
melting point: 66.1 to 68.5 °C
--
compound: O=C(c1ccccc1)N1CCC(O)CC1
melting point: 91.5 to 92 °C
--
compound: CC12CCC3c4ccc(OCc5ccccc5)cc4CCC3C1CCC2OCc1ccccc1 (stereo not given)
melting point: 74 to 78 °C
--
compound: CN(C)C=C(C#N)C(=O)c1ccc(-n2ccnc2)cc1
melting point: 165 °C
--
compound: Cc1ccc(CS(=O)c2nc3cc4c(cc3[nH]2)CCC4)nc1 (stereo not given)
melting point: 190 to 191 °C
